test: 28-day repeat dose dermal toxicity study; assay type: in vivo, minipig; conditions: both sexes, Gottingen, minipig, in vivo, topical or ocular; dermal, 28 days
ENDPOINT LABEL: NOAEL at 28 days

- MOLECULE: "CC(C)Oc1cc(-n2cnc3ccc(N[C@@H](C)c4ncc(F)cn4)nc32)n[nH]1.CS(=O)(=O)O [Compound A mesylate salt]"
  EXPERIMENTAL VALUE: "1 mg/kg/day"

====

assay: 28-day repeat dose dermal toxicity study; assay type: in vivo, minipig; conditions: male, Gottingen, minipig, in vivo, topical or ocular; males, 1 mg/kg/day dermal, Day 28
ENDPOINT LABEL: Cmax (ng/mL)

- COMPOUND: "CC(C)Oc1cc(-n2cnc3ccc(N[C@@H](C)c4ncc(F)cn4)nc32)n[nH]1.CS(=O)(=O)O [Compound A mesylate salt]"
  UNIT LABEL: "ng/mL"
  EXPERIMENTAL VALUE: 3.03

====

experiment: 28-day repeat dose dermal toxicity study; type: in vivo, minipig; details: male, Gottingen, minipig, in vivo, topical or ocular; males, 1 mg/kg/day dermal, Day 28; read-out: AUC0-Tlast
ENDPOINT LABEL: AUC(0-t) (ng·h/mL)

- MOLECULE: "CC(C)Oc1cc(-n2cnc3ccc(N[C@@H](C)c4ncc(F)cn4)nc32)n[nH]1.CS(=O)(=O)O [Compound A mesylate salt]"
  ENDPOINT LABEL: "AUC(0-t)"
  EXPERIMENTAL VALUE: 32.6

====

assay: 28-day repeat dose dermal toxicity study; type: in vivo, minipig; conditions: female, Gottingen, minipig, in vivo, topical or ocular; females, 1 mg/kg/day dermal, Day 28

- COMPOUND: "CC(C)Oc1cc(-n2cnc3ccc(N[C@@H](C)c4ncc(F)cn4)nc32)n[nH]1.CS(=O)(=O)O [Compound A mesylate salt]"
  Cmax: "2.52 ng/mL"

====

test: Dog oral toxicity studies (one-month); type: in vivo; conditions: in vivo, one-month study
ENDPOINT LABEL: NOAEL at 1 month (mg/kg/day)

- COMPOUND: "CC(C)Oc1cc(-n2cnc3ccc(N[C@@H](C)c4ncc(F)cn4)nc32)n[nH]1.CS(=O)(=O)O [Compound A mesylate salt]"
  ENDPOINT LABEL: "NOAEL at 1 month"
  UNIT LABEL: "mg/kg/day"
  EXPERIMENTAL VALUE: 2

====

assay: One-month rat oral toxicity study; type: in vivo; settings: in vivo, oral, for the myocardial findings

- MOLECULE: "CC(C)Oc1cc(-n2cnc3ccc(N[C@@H](C)c4ncc(F)cn4)nc32)n[nH]1.CS(=O)(=O)O [Compound A mesylate salt]"
  NOAEL at 1 month [mg/kg/day]: 0.5
